- Target: human MRGPRX2 (Homo sapiens)
- Method: MRGPRX2 IP-1 Gq HTRF assay in HEK293 cells stably expressing human MRGPRX2, Cortistatin-14 at EC75
- Protocol Conditions: 2 hours at 37° C., cellular IP-1
pEC50: −log10 of the molar value.
Listed below: pEC50 values for each entry.

Look up and state reported pEC50 for CC(=O)N1C[C@@H](NC(=O)c2cccc(NS(C)(=O)=O)c2)C[C@@H](Nc2cc(C(F)(F)F)nc3ccc(Cl)cc23)C1
> 7.00

Look up and state reported pEC50 for CC(=O)N1C[C@@H](NC(=O)c2cnn(C(F)F)c2)C[C@@H](Nc2cc(C(F)(F)F)nc3ccc(Cl)cc23)C1
> 7.00

Look up and state reported pEC50 for CC(=O)N1C[C@@H](NC(=O)c2cc(F)cc(F)c2)C[C@@H](Nc2cc(C(F)(F)F)nc3ccc(Cl)cc23)C1
6.00 to 7.00

Look up and state reported pEC50 for CC(=O)N1C[C@@H](NC(=O)c2cnn(C3CC3)c2)C[C@@H](Nc2cc(C(F)(F)F)nc3ccc(Cl)cc23)C1
6.00 to 7.00

Look up and state reported pEC50 for CCn1cc2cc(C(=O)N[C@H]3C[C@@H](Nc4cc(C(F)(F)F)nc5ccc(Cl)cc45)CN(C(C)=O)C3)ccc2n1
> 7.00

Look up and state reported pEC50 for CS(=O)(=O)Nc1cccc(C(=O)N[C@H]2CC(N(C(=O)C3CC3)c3cc(C(F)(F)F)nc4ccc(Cl)cc34)CN(C(=O)C3CC3)C2)c1 (stereo partly shown)
6.00 to 7.00

Look up and state reported pEC50 for CS(=O)(=O)Nc1cccc(C(=O)N[C@H]2C[C@@H](Nc3cc(C(F)(F)F)nc4ccc(Cl)cc34)CN(S(=O)(=O)c3ccccc3)C2)c1
6.00 to 7.00

Look up and state reported pEC50 for CS(=O)(=O)Nc1cccc(-c2cn([C@@H]3CNC[C@H](Nc4cc(C(F)(F)F)nc5ccc(Cl)cc45)C3)nn2)c1
6.00 to 7.00

Look up and state reported pEC50 for CN(C)CC(=O)N1C[C@@H](NC(=O)c2cccc(NS(C)(=O)=O)c2)C[C@@H](Nc2cc(C(F)(F)F)nc3ccc(Cl)cc23)C1
6.00 to 7.00

====

- Target: human MRGPRX2 (Homo sapiens, UniProt Q96LB1)
- Sequence (Q96LB1 1-330): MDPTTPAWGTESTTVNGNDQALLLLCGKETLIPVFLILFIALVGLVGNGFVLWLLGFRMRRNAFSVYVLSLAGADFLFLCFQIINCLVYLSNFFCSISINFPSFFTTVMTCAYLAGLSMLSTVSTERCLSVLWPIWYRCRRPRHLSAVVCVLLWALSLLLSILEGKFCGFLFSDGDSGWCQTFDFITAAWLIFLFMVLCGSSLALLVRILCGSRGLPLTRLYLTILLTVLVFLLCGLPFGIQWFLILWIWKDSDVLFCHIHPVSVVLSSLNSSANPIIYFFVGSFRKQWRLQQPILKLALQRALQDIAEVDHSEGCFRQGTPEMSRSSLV
- Method: MRGPRX2 IP-1 Gq HTRF assay in HEK293 cells stably expressing human MRGPRX2, Cortistatin-14 at EC75
- Protocol Conditions: 2 hours at 37° C., cellular IP-1
pEC50: −log10 of the molar value.
Listed below: pEC50 values for each entry.

See these solved cases before continuing.
Look up and state reported pEC50 for CC(=O)N1C[C@@H](NC(=O)c2ccc(C(F)(F)F)nc2)C[C@@H](Nc2cc(C(F)(F)F)nc3ccc(Cl)cc23)C1
6.00 to 7.00

Look up and state reported pEC50 for CS(=O)(=O)Nc1cccc(C(=O)N[C@H]2C[C@@H](Nc3cc(C(F)(F)F)nc4ccc(Cl)cc34)CN(C(=O)C(F)(F)F)C2)c1
6.00 to 7.00

Look up and state reported pEC50 for COC(=O)N1C[C@@H](NC(=O)c2cccc(NS(C)(=O)=O)c2)C[C@@H](Nc2cc(C(F)(F)F)nc3ccc(Cl)cc23)C1
> 7.00

Look up and state reported pEC50 for CC(C)(C)OC(=O)N1C[C@@H](NC(=O)c2cccc(NS(C)(=O)=O)c2)C[C@@H](Nc2cc(C(F)(F)F)nc3ccc(Cl)cc23)C1
6.00 to 7.00

Look up and state reported pEC50 for O=C(N[C@H]1C[C@@H](Nc2cc(C(F)(F)F)nc3ccc(Cl)cc23)CS(=O)(=O)C1)c1ccc(F)cc1
< 6.00

Now let's try a different one.
Look up and state reported pEC50 for CC(=O)N1CC(Nc2cc(C(F)(F)F)nc3ccc(F)cc23)C[C@H](NC(=O)c2cccc(NS(C)(=O)=O)c2)C1 (stereo partly drawn)
> 7.00

====

- Target: MRGPRX2 LAD2 (Homo sapiens, UniProt Q96LB1)
- Sequence (Q96LB1 1-330): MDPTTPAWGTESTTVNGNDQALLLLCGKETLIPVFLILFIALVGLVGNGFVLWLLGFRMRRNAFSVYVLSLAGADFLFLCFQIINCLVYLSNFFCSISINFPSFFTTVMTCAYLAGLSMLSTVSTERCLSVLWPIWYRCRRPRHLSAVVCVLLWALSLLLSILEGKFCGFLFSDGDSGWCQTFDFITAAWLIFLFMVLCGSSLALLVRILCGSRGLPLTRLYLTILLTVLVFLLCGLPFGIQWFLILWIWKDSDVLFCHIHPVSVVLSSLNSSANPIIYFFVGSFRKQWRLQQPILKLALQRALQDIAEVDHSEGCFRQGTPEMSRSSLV
- Method: LAD2 β-hexosaminidase release assay (degranulation), Cortistatin-14 at EC75
- Protocol Conditions: LAD2 cells; 1 hour compound incubation, Cortistatin-14 at EC75 for 30 minutes; percent degranulation (β-hexosaminidase)
- Description: LAD2 cells obtained from the NIH were cultured in StemPro34 (Gibco) serum-free media supplemented with GlutaMax, penicillin and streptomycin, and 100 ng/mL SCF (Invitrogen). Cells were maintained in a 37° C., 5% CO2 humidified incubator at a concentration of 2-5E5 cells/mL, with hemidepletion once a week. One day prior to the assay, cells were starved of SCF at a concentration of 2.3E5 cells/mL. […] The plates were read on a Perkin Elmer Envision plate reader at an Abs of 405 nanometers. […]
Listed below: EC50 values for each entry.

See these solved cases before continuing.
Look up and state reported EC50 for O=C(N[C@H]1C[C@@H](Nc2cc(C(F)(F)F)nc3ccc(Cl)cc23)CN(C(=O)C(F)F)C1)c1cn(CC2(O)CCC2)nc1Cl [Example 119]
< 100 nM

Look up and state reported EC50 for CN(C)C(=O)N1C[C@@H](NC(=O)c2cccc(NS(C)(=O)=O)c2)C[C@@H](Nc2cc(C(F)(F)F)nc3ccc(Cl)cc23)C1 [Example 10]
< 100 nM

Look up and state reported EC50 for CC(C)(O)Cn1cc(C(=O)N[C@H]2C[C@@H](Nc3cc(C(F)(F)F)nc4ccc(Cl)cc34)CN(C(=O)C3(F)CC3)C2)c(Cl)n1 [Example 81]
< 100 nM

***
Look up and state reported EC50 for CC(=O)N1C[C@@H](NC(=O)c2ccc3cc[nH]c3c2)C[C@@H](Nc2cc(C(F)(F)F)nc3ccc(Cl)cc23)C1 [Example 112]
< 100 nM

Look up and state reported EC50 for CC(C)(O)Cn1cc(C(=O)N[C@H]2C[C@@H](Nc3cc(C(F)(F)F)nc4ccc(Cl)cc34)CN(C(=O)[C@H]3CC3(F)F)C2)c(Cl)n1 [Example 78]
< 100 nM

Look up and state reported EC50 for CC(=O)N1C[C@@H](NC(=O)c2cn(CC(F)(F)F)cc2C(F)(F)F)C[C@@H](Nc2cc(C(F)(F)F)nc3ccc(Cl)cc23)C1 [Example 113]
< 100 nM

Look up and state reported EC50 for CC(=O)N1C[C@@H](NC(=O)c2cccc(C(C)(C)O)c2)C[C@@H](Nc2cc(C(F)(F)F)nc3ccc(Cl)cc23)C1 [Example 41]
< 100 nM

Look up and state reported EC50 for C[C@@H](O)Cn1cc(C(=O)N[C@H]2C[C@@H](Nc3cc(C(F)(F)F)nc4ccc(Cl)cc34)CN(C(=O)C(F)F)C2)c(Cl)n1 [Example 123]
< 100 nM

Look up and state reported EC50 for C[C@H](O)Cn1cc(C(=O)N[C@H]2C[C@@H](Nc3cc(C(F)(F)F)nc4ccc(Cl)cc34)CN(C(=O)C(F)F)C2)c(Cl)n1 [Example 124]
< 100 nM

Look up and state reported EC50 for COCC(F)(F)C(=O)N1C[C@@H](NC(=O)c2cn(CC(C)(C)O)nc2Cl)C[C@@H](Nc2cc(C(F)(F)F)nc3ccc(Cl)cc23)C1 [Example 79]
< 100 nM

Look up and state reported EC50 for CS(=O)(=O)Nc1cccc(C(=O)N[C@H]2C[C@@H](Nc3cc(C(F)(F)F)nc4ccc(Cl)cc34)CN(S(C)(=O)=O)C2)c1 [Example 3]
< 100 nM

Look up and state reported EC50 for CC(C)(O)Cn1cc(C(=O)N[C@H]2C[C@@H](Nc3cc(C(F)(F)F)nc4ccc(Cl)cc34)CN(C(=O)c3ccccc3F)C2)c(Cl)n1 [Example 85]
< 100 nM
